molecular target: Papain (Carica papaya); test: Primary qHTS assay for inhibitors of the protease papain (AID 1645873); conditions: papain Z-FR-AMC cleavage, AMC fluorescence; series mostly up to 49.8 µM;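 further: papain turnover of Z-FR-AMC read as the AMC fluorescence gain over 10 min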
Inconclusive results are not listed. The source made the active and inactive calls. The call rests on the fitted dose curve; in most records, active means well fitted inhibition curve with a large enough effect; inconclusive means small, poorly fitted or top-dose-only effect; inactive means no such curve, though single readings can be large or run the other way.
readout.kind: outcome

// worked examples, outcome included
> print(dat)
                                   molecule             test.system  measured
1          CCN(CC)CCNC(=O)c1cc(Cl)c(N)cc1OC  Papain (Carica papaya)  inactive
2               CNCCCC1c2ccccc2C=Cc2ccccc21  Papain (Carica papaya)  inactive
3                 N=c1c[n+](N2CCOCC2)[n-]o1  Papain (Carica papaya)  inactive
4  CC(CN1c2ccccc2Sc2ccccc21)N(C)C (stereo not given)  Papain (Carica papaya)  inactive

Consider the additional molecule presented here.
Asked: Quick one: outcome of CSc1ccc2c(c1)N(CCC1CCCCN1C)c1ccccc1S2 (stereo not given) ?
Given back: inactive

====

system: DIV14; test: qHTS profiling for inhibitors of Plasmodium falciparum proliferation (AID 504749); further: nearly all actives have a fitted effect of over 60% in size; details: P. falciparum in erythrocytes, SYBR Green DNA, 72 h; series mostly up to 28.7 µM
Records with an inconclusive call do not appear. The source made the active and inactive calls. Calls come from the whole dose curve; as a rule, active = well fitted inhibition curve with a large enough effect; inconclusive = small, poorly fitted or top-dose-only effect; inactive = flat fitted curve, though single readings scatter.
Classes to choose from: 1 (active), 0 (inactive)

Some entries whose results are on file:
> print(dat)
                                   compound  class
1      O=C(O)CC(O)C(=O)O (stereo not given)      0
2          CN(C)CCCN1c2ccccc2Sc2ccc(Cl)cc21      1
3              C[C@](N)(Cc1ccc(O)cc1)C(=O)O      0
4       O=c1[nH]c(=O)c2[nH]c(=O)[nH]c2[nH]1      0
5  CSc1ccc2c(c1)C(N1CCN(C)CC1)Cc1ccccc1S2 (stereo not given)      1

Asked: What is the recorded call for this compound in the test? "C[C@@H]1CN(c2c(F)c(F)c3c(=O)c(C(=O)O)cn(C4CC4)c3c2F)C[C@H](C)N1"
Given back: 0

Asked: Please answer likewise for "Nc1ccc(S(=O)(=O)Nc2ccc(Cl)nn2)cc1"
Given back: 0

Asked: Please answer likewise for "O=C(O)c1ccccc1-c1ccc(C(F)(F)F)cc1"
Given back: 0

Asked: Please answer likewise for "Cc1cccc(C)c1NC(=O)CN(CC(=O)O)CC(=O)O"
Given back: 0

Asked: Please answer likewise for "CCCOC(=O)c1ccccc1"
Given back: 0

Asked: Please answer likewise for "Cc1c(O)cccc1C(=O)N[C@@H](CSc1ccccc1)[C@H](O)CN1C[C@H]2CCCC[C@H]2C[C@H]1C(=O)NC(C)(C)C"
Given back: 1

Asked: Please answer likewise for "CCOC(=O)[C@H](CCc1ccccc1)N[C@@H](C)C(=O)N1C(=O)N(C)C[C@H]1C(=O)O"
Given back: 0

Asked: Please answer likewise for "CCCCN(CCCC)CCCOC(=O)c1ccc(N)cc1"
Given back: 0

Asked: Please answer likewise for "Nc1ccc(S(=O)(=O)NC(=O)c2ccccc2)cc1"
Given back: 0

Asked: Please answer likewise for "O=c1cc[nH]c(=S)[nH]1"
Given back: 0

Asked: Please answer likewise for CSc1ccc2c(c1)N(CCC1CCCCN1C)c1ccccc1S2 (stereo not given)
Given back: 1

Asked: Please answer likewise for "CCCc1c(OCCCCc2nn[nH]n2)ccc(C(C)=O)c1O"
Given back: 0

Asked: Please answer likewise for "COc1ccc(Cl)cc1C(=O)NCCc1ccc(S(=O)(=O)NC(=O)NC2CCCCC2)cc1"
Given back: 0

Asked: Please answer likewise for NC(CSCC(=O)O)C(=O)O (stereo not given)
Given back: 0

Asked: Please answer likewise for "CCCCc1ncc(/C=C(\Cc2cccs2)C(=O)O)n1Cc1ccc(C(=O)O)cc1"
Given back: 0

Asked: Please answer likewise for "O=C1O[C@H]([C@@H](O)CO)C(O)=C1O"
Given back: 0

Asked: Please answer likewise for "O=S(=O)(O)NC1CCCCC1"
Given back: 0

====

tested on: MKL-1; assay: qHTS assay to identify novel small-molecules to repurpose for Merkel cell carcinoma treatment (AID 1296009); conditions: MCC and control cell lines, CellTiter-Glo viability, 72 h; series mostly up to 46 µM; further: nearly all actives have a fitted effect of over 60% in size
Inconclusive results are not listed. Calls of active or inactive are those of the source. The call rests on the fitted dose curve; in most records, active means well fitted inhibition curve with a large enough effect; inconclusive means small, poorly fitted or top-dose-only effect; inactive means flat fitted curve, though single readings scatter.
Classes to choose from: 1 (active), -1 (inactive)

Some entries whose results are on file:
> print(dat)
                                    compound  class
 1        Cc1ccc2nc(N)[nH]c(=O)c2c1Sc1ccncc1     -1
 2                       CCOC(=O)c1ccc(O)cc1     -1
 3  COCCOC(=O)C1=C(C)NC(C)=C(C(=O)OC/C=C/c2ccccc2)C1c1cccc([N+](=O)[O-])c1 (configuration not stated)      1
 4  CC(C)c1c(C(=O)Nc2ccccc2)c(-c2ccccc2)c(-c2ccc(F)cc2)n1CC[C@@H](O)C[C@@H](O)CC(=O)O      1
 5  Cc1cc2nc3c(=O)[nH]c(=O)nc-3n(C[C@H](O)[C@H](O)[C@H](O)CO)c2cc1C     -1
 6  C[C@@H]1C[C@H]2[C@@H]3C[C@H](F)C4=CC(=O)C=C[C@]4(C)[C@@]3(F)[C@@H](O)C[C@]2(C)[C@@]1(O)C(=O)CO     -1
 7  OC[C@H]1O[C@@H](O[C@@H]2[C@@H](CO)O[C@](O)(CO)[C@H]2O)[C@H](O)[C@@H](O)[C@H]1O     -1
 8            CN(C)CCC=C1c2ccccc2CCc2ccccc21     -1
 9  C[C@H]1O[C@@H](n2cc(F)c(=O)[nH]c2=O)[C@H](O)[C@@H]1O     -1
10  N[C@H]1C(O)O[C@H](CO)[C@@H](O)[C@@H]1O (some centres not stated)     -1

Asked: What is the recorded call for this compound in the test? CCOC(CN1CCN(CC(C)C(=O)c2ccccc2)CC1)c1ccccc1 (configuration not stated)
Given back: -1

Asked: Please answer likewise for "CN(C)CCCN1c2ccccc2Sc2ccc(Cl)cc21"
Given back: 1

Asked: Please answer likewise for "Cn1c(=O)c2c(ncn2CC2OCCO2)n(C)c1=O"
Given back: -1

====

system: DIV14; test: qHTS profiling for inhibitors of Plasmodium falciparum proliferation (AID 504749); further: nearly all actives have a fitted effect of over 60% in size; further: potency means the concentration at half of the fitted maximal effect; settings: P. falciparum in erythrocytes, SYBR Green DNA, 72 h; series mostly up to 28.7 µM
Inconclusive results are not listed. Active and inactive are the calls of the source. Calls follow the shape of the dose curve; as a rule, active = well fitted inhibition curve with a large enough effect; inconclusive = small, poorly fitted or top-dose-only effect; inactive = flat fitted curve, though single readings scatter.
readout.kind: Potency

// worked examples, Potency included
> print(dat)
                                   compound          measured
1  CN1CCCCC1CCN1c2ccccc2Sc2ccc(S(C)=O)cc21 (stereo not drawn)  7.57 µM (active)
2  COc1ccc2[nH]c(S(=O)Cc3ncc(C)c(OC)c3C)nc2n1 (stereo not drawn)  3.38 µM (active)
3                           NCC(=O)CCC(=O)O          inactive
4         Cn1c(=O)c2c(ncn2CC2OCCO2)n(C)c1=O          inactive
5                     N[C@@H](CSCCCO)C(=O)O          inactive
6  CC1=C(/C=C/C(C)=C/C=C/C(C)=C/C(=O)O)C(C)(C)CCC1          inactive

Asked: Provide the documented Potency with DIV14 as the system for "CCn1cc(C(=O)O)c(=O)c2cnc(N3CCNCC3)nc21"
Given back: inactive

Asked: Please answer likewise for "O=S(=O)(O)c1cc(I)c(O)c2ncccc12"
Given back: inactive

Asked: Please answer likewise for "Cc1cccc(Nc2cc(Cl)nc(SCC(=O)O)n2)c1C"
Given back: inactive

Asked: Please answer likewise for "Nc1ccc(S(=O)(=O)Nc2nccs2)cc1"
Given back: inactive

Asked: Please answer likewise for CC(O)CN(CCN(CC(C)O)CC(C)O)CC(C)O (stereo not drawn)
Given back: inactive

Asked: Please answer likewise for OCC(O)CN1CCN(c2ccccc2)CC1 (stereo not drawn)
Given back: inactive

Asked: Please answer likewise for "Cc1cc2c(cc1S(N)(=O)=O)S(=O)(=O)CCC2"
Given back: inactive

====

test: qHTS for differential inhibitors of proliferation of Plasmodium falciparum line 7G8 (AID 1815); conditions: Plasmodium falciparum 7G8 proliferation inhibition; series mostly up to 28.7 µM;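 further: parasite growth measured after three days of incubation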; further: potency means the concentration at half of the fitted maximal effect
Records with an inconclusive call do not appear. Calls of active or inactive are those of the source. Calls come from the whole dose curve; as a rule, active = well fitted curve in the direction sought with a large enough effect; inconclusive = small, poorly fitted or top-dose-only effect, or another doubt; inactive = no such curve, though single readings can be large or run the other way.
readout.kind: Potency

// worked examples, Potency included
> print(dat)
                                   compound  readout.kind          measured
1          CCN(CC)CCNC(=O)c1cc(Cl)c(N)cc1OC       Potency          inactive
2          CN(C)CCCN1c2ccccc2Sc2ccc(Cl)cc21       Potency  4.47 µM (active)
3                       Nc1cc(=O)[nH]c(N)n1       Potency          inactive
4  CN1CCN(C2Cc3ccccc3Sc3ccc(Cl)cc32)CC1 (stereo not given)       Potency  6.31 µM (active)
5  CC1=C(/C=C/C(C)=C/C=C/C(C)=C/C(=O)O)C(C)(C)CCC1       Potency  14.1 µM (active)

Asked: Quick one: Potency of "CCN(CC)CCOC(=O)C1(C2CCCCC2)CCCCC1" ?
Given back: 8.91 µM (active)

Asked: Please answer likewise for CC(CN1c2ccccc2Sc2ccccc21)N(C)C (stereo not given)
Given back: 7.08 µM (active)

Asked: Please answer likewise for "C[C@]12CC[C@@H]3c4ccc(O)cc4CC[C@H]3[C@@H]1CCC2=O"
Given back: 3.98 µM (active)

Asked: Please answer likewise for "CNCCCC1c2ccccc2C=Cc2ccccc21"
Given back: 5.62 µM (active)

Asked: Please answer likewise for OCc1cc(C(O)CNCCCCCCOCCCCc2ccccc2)ccc1O (stereo not given)
Given back: 8.91 µM (active)

Asked: Please answer likewise for "NC(N)=NCCC[C@H](N)C(=O)O"
Given back: inactive

Asked: Please answer likewise for CSc1ccc2c(c1)C(N1CCN(C)CC1)Cc1ccccc1S2 (stereo not given)
Given back: 6.31 µM (active)

Asked: Please answer likewise for CC(CN(C)C)CN1c2ccccc2CCc2ccccc21 (stereo not given)
Given back: 8.91 µM (active)

Asked: Please answer likewise for "C[C@H]1O[C@@H](n2cc(F)c(=O)[nH]c2=O)[C@H](O)[C@@H]1O"
Given back: inactive

Asked: Please answer likewise for "CC(=O)OCC(=O)[C@@]1(O)CC[C@H]2[C@@H]3CCC4=CC(=O)CC[C@]4(C)[C@H]3C(=O)C[C@@]21C"
Given back: inactive

Asked: Please answer likewise for "C[C@](N)(Cc1ccc(O)cc1)C(=O)O"
Given back: inactive

Asked: Please answer likewise for "CN(C)CC[C@@H](c1ccc(Cl)cc1)c1ccccn1"
Given back: 2.51 µM (active)

Asked: Please answer likewise for "C#CCN(C)Cc1ccccc1"
Given back: inactive

Asked: Please answer likewise for CC1=C(CC(=O)O)c2cc(F)ccc2/C1=C\c1ccc(S(C)=O)cc1 (stereo not given)
Given back: inactive

Asked: Please answer likewise for CC(C(O)c1ccc(O)cc1)N1CCC(Cc2ccccc2)CC1 (stereo not given)
Given back: 7.08 µM (active)
